experiment_summary: Cmax in male Sprague-Dawley rat at 40 mg/kg, po administered once daily via gavage for 28 days
Assay type: ADME, organism-based
condition_label: in vivo, time 28 day
test_readout: Cmax (ng/mL)
Answers are plain numbers, in ng/mL.

Report Cmax for C=CC(=O)N1CCc2c(ncnc2N2CC[C@@H](Nc3ncc(Cl)c(OC)n3)C2)C1 please.
2410

====

experiment_summary: Cmax in female Sprague-Dawley rat at 15 mg/kg, po administered once daily via gavage for 28 days
Type: ADME, organism-based
condition_label: in vivo, time 28 day
test_readout: Cmax
Express the reported value numerically, then name its unit.

Report Cmax for C=CC(=O)N1CCc2c(ncnc2N2CC[C@@H](Nc3ncc(Cl)c(OC)n3)C2)C1 please.
1800 ng/mL

====

experiment_summary: AUC(0 to t) in female Sprague-Dawley rat at 30 mg/kg, po administered via gavage and measured on day 1
Format: ADME, organism-based
condition_label: in vivo, 24 h, time 1 day
test_readout: AUCt

Report AUCt for C=CC(=O)N1CCc2c(ncnc2N2CC[C@@H](Nc3ncc(Cl)c(OC)n3)C2)C1 please.
9.09 µg·h/mL

====

experimental_target: CDK7/Cyclin H/MNAT1 (Homo sapiens, UniProt P50613)
Sequence (P51946 whole entry): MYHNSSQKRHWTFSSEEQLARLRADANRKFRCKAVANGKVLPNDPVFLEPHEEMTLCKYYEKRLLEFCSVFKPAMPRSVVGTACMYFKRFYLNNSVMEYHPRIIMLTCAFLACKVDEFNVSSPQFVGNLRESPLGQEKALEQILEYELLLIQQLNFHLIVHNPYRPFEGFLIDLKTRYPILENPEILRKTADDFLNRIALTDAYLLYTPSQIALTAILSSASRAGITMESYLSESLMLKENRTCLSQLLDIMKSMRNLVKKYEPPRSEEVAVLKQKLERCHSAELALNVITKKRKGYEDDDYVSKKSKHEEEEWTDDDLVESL
Sequence (P50613 whole entry): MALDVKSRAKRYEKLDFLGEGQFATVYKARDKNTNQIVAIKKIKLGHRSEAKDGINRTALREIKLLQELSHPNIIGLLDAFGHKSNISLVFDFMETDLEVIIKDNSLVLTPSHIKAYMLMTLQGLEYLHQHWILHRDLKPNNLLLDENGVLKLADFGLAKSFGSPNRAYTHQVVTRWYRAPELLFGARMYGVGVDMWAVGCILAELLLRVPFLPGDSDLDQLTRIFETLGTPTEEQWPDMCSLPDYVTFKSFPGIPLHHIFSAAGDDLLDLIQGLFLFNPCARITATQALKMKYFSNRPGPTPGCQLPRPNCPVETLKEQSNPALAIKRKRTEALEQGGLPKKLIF
Sequence (P51948 whole entry, further chain): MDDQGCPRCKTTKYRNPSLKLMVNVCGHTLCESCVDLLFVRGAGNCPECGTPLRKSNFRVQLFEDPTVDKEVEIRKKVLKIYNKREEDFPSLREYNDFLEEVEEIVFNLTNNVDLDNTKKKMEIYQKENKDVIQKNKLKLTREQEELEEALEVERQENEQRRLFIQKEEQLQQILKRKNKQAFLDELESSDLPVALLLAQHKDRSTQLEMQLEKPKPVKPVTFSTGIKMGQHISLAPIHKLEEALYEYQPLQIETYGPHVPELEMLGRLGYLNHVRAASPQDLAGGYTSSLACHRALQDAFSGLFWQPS
experiment_summary: Inhibition of human recombinant N-terminal 6X His-tagged CDK7/CCNH/N-terminal 6X His-tagged MNAT1 expressed in HEP Sf9 cells using ATP as substrate measured after 60 mins by ADP-Glo reagent based luminescence assay
test_readout: IC50
Express the reported value numerically, then name its unit.

Report IC50 for C=CC(=O)N1CCc2c(ncnc2N2CC[C@@H](Nc3ncc(Cl)c(OC)n3)C2)C1 please.
0.204 µM

====

experiment_summary: Protein binding in human plasma assessed as free fraction at 400 uM incubated for 4 hrs by equilibrium dialysis method based LC-MS/MS analysis
Format: ADME, cell-free
test_readout: fraction unbound at 4 h, 400 µM
Numbers only.

Report fraction unbound at 4 h, 400 µM for C=CC(=O)N1CCc2c(ncnc2N2CC[C@@H](Nc3ncc(Cl)c(OC)n3)C2)C1 please.
0.127

Next:
Report fraction unbound at 4 h, 400 µM for C=CC(=O)Nc1ccc(C(=O)N2CC[C@@H](Nc3ncc(Cl)c(OC)n3)C2)cc1 please.
0.003

====

experiment_summary: Cmax in Sprague-Dawley rat at 15 mg/kg, po measured for 24 hrs by LC-MS/MS analysis
Assay type: ADME, organism-based
condition_label: in vivo
test_readout: Cmax (ng/mL)
Numbers only, in ng/mL.

Report Cmax for C=CC(=O)N1CCc2c(ncnc2N2CC[C@@H](Nc3ncc(Cl)c(OC)n3)C2)C1 please.
797

====

experiment_summary: Half life in female Sprague-Dawley rat at 15 mg/kg, po administered via gavage and measured on day 1
Assay type: ADME, organism-based
condition_label: in vivo, time 1 day
test_readout: half-life (h)
Numbers only, in h.

Report half-life for C=CC(=O)N1CCc2c(ncnc2N2CC[C@@H](Nc3ncc(Cl)c(OC)n3)C2)C1 please.
3.7

====

experiment_summary: Half life in female Sprague-Dawley rat at 7.5 mg/kg, po administered via gavage and measured on day 1
Type: ADME, organism-based
condition_label: in vivo, time 1 day
test_readout: half-life (h)
Answers are plain numbers, in h.

Report half-life for C=CC(=O)N1CCc2c(ncnc2N2CC[C@@H](Nc3ncc(Cl)c(OC)n3)C2)C1 please.
2

====

experiment_summary: Cmax in female Sprague-Dawley rat at 7.5 mg/kg, po administered via gavage and measured on day 1
Format: ADME, organism-based
condition_label: in vivo, time 1 day
test_readout: Cmax (ng/mL)
One number for each entry, in ng/mL.

Report Cmax for C=CC(=O)N1CCc2c(ncnc2N2CC[C@@H](Nc3ncc(Cl)c(OC)n3)C2)C1 please.
870

====

experiment_summary: Half life in male Sprague-Dawley rat at 40 mg/kg, po administered via gavage and measured on day 1
Format: ADME, organism-based
condition_label: in vivo, time 1 day
test_readout: half-life

Report half-life for C=CC(=O)N1CCc2c(ncnc2N2CC[C@@H](Nc3ncc(Cl)c(OC)n3)C2)C1 please.
6.2 h

====

Tested on: HCT-116
experiment_summary: Antiproliferative activity against PARG KO human HCT-116 cells assessed as reduction in cell viability incubated for 7 days by CellTiter-Glo reagent based luminescence analysis
Type: functional
condition_label: HCT-116, 168 h
test_readout: IC50 (nM)
One number for each entry, in nM.

Report IC50 for C=CC(=O)N1CCc2c(ncnc2N2CC[C@@H](Nc3ncc(Cl)c(OC)n3)C2)C1 please.
123

====

experiment_summary: AUC (0 to infinity) in Sprague-Dawley rat at 15 mg/kg, po by LC-MS/MS analysis
Assay type: ADME, organism-based
condition_label: in vivo
test_readout: AUC(0-inf) (ng·h/mL)
Answers are plain numbers, in ng·h/mL.

Report AUC(0-inf) for C=CC(=O)N1CCc2c(ncnc2N2CC[C@@H](Nc3ncc(Cl)c(OC)n3)C2)C1 please.
2280

====

experiment_summary: Cmax in male Sprague-Dawley rat at 40 mg/kg, po administered via gavage and measured on day 1
Format: ADME, organism-based
condition_label: in vivo, time 1 day
test_readout: Cmax (ng/mL)
Numbers only, in ng/mL.

Report Cmax for C=CC(=O)N1CCc2c(ncnc2N2CC[C@@H](Nc3ncc(Cl)c(OC)n3)C2)C1 please.
1660

====

experiment_summary: Volume of distribution at steady state in CD-1 mouse at 1 mg/kg, iv measured for 24 hrs by LC-MS/MS analysis
Assay type: ADME, organism-based
condition_label: in vivo, read-out: Vdss
test_readout: Vd (L/kg)
Give bare numbers, in L/kg.

Report Vd for C=CC(=O)N1CCc2c(ncnc2N2CC[C@@H](Nc3ncc(Cl)c(OC)n3)C2)C1 please.
0.87

Report Vd for every entry below.
1. CC#CC(=O)N1CCc2c(ncnc2N2CC[C@@H](Nc3ncc(Cl)c(OC)n3)C2)C1
2. C=CC(=O)Nc1ccc(C(=O)N2CC[C@@H](Nc3ncc(Cl)c(OC)n3)C2)cc1

0.35
0.66

====

experimental_target: Voltage-gated inwardly rectifying potassium channel KCNH2 (Homo sapiens, UniProt Q12809)
Sequence (Q12809 whole entry): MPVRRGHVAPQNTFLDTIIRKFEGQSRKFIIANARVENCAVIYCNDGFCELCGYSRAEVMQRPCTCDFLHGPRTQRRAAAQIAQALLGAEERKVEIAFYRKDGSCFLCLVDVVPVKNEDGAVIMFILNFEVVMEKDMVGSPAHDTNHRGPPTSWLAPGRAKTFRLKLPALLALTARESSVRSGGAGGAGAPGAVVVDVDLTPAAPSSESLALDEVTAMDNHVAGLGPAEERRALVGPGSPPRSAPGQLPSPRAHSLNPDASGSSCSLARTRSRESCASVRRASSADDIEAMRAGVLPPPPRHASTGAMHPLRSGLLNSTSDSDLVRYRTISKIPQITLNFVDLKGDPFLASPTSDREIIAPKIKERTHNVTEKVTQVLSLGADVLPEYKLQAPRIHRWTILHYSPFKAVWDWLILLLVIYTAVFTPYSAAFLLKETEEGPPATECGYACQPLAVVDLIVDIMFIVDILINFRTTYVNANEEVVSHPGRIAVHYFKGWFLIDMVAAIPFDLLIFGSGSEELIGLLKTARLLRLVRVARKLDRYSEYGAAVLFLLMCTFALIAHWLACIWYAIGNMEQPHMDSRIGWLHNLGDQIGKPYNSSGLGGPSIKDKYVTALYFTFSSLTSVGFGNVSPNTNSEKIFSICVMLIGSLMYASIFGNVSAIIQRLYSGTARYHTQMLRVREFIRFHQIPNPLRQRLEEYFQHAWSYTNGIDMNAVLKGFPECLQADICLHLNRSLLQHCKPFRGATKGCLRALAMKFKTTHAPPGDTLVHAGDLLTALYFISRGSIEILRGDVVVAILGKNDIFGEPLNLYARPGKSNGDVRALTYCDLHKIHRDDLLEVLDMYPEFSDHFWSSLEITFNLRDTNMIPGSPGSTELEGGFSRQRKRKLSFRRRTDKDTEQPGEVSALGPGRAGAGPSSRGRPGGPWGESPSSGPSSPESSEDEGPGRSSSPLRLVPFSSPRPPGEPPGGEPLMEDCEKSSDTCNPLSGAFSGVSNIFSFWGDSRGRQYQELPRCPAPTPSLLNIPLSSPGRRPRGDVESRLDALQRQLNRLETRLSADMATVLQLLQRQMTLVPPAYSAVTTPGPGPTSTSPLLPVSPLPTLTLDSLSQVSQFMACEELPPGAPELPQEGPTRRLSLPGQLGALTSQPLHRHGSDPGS
experiment_summary: Inhibition of hERG expressed in CHO cells assessed as inhibition of channel current measured at holding potential of -80 mV by whole cell patch clamp analysis
test_readout: IC50

Report IC50 for C=CC(=O)N1CCc2c(ncnc2N2CC[C@@H](Nc3ncc(Cl)c(OC)n3)C2)C1 please.
> 30 µM

====

experiment_summary: AUC(0 to t) in female Sprague-Dawley rat at 30 mg/kg, po administered once daily via gavage for 28 days
Assay type: ADME, organism-based
condition_label: in vivo, 672 h, time 28 day
test_readout: AUCt (ng·h/mL)
Answers are plain numbers, in ng·h/mL.

Report AUCt for C=CC(=O)N1CCc2c(ncnc2N2CC[C@@H](Nc3ncc(Cl)c(OC)n3)C2)C1 please.
7860

====

experiment_summary: AUC(0 to t) in male Sprague-Dawley rat at 20 mg/kg, po administered via gavage and measured on day 1
Format: ADME, organism-based
condition_label: in vivo, 24 h, time 1 day
test_readout: AUCt (ng·h/mL)
One number for each entry, in ng·h/mL.

Report AUCt for C=CC(=O)N1CCc2c(ncnc2N2CC[C@@H](Nc3ncc(Cl)c(OC)n3)C2)C1 please.
2550

====

experiment_summary: Clearance in Sprague-Dawley rat at 1 mg/kg, iv measured for 24 hrs by LC-MS/MS analysis
Format: ADME, organism-based
condition_label: in vivo
test_readout: clearance
Express the reported value numerically, then name its unit.

Report clearance for C=CC(=O)N1CCc2c(ncnc2N2CC[C@@H](Nc3ncc(Cl)c(OC)n3)C2)C1 please.
3.74 L/h/kg

====

Test system: NCI-H508
experiment_summary: Antiproliferative activity against human NCI-H508 cells assessed as reduction in cell viability incubated for 7 days by CellTiter-Glo reagent based luminescence analysis
Format: functional
condition_label: NCI-H508, 168 h
test_readout: IC50
Express the reported value numerically, then name its unit.

Report IC50 for C=CC(=O)N1CCc2c(ncnc2N2CC[C@@H](Nc3ncc(Cl)c(OC)n3)C2)C1 please.
87 nM

====

experiment_summary: Half-life in Balb/c mouse xenografted with human MV4-11 cells at 30 mg/kg, po administered once daily via gavage
Type: ADME, organism-based
condition_label: in vivo
test_readout: half-life (h)
Numbers only, in h.

Report half-life for C=CC(=O)N1CCc2c(ncnc2N2CC[C@@H](Nc3ncc(Cl)c(OC)n3)C2)C1 please.
1.17

====

experiment_summary: Cmax in male Sprague-Dawley rat at 10 mg/kg, po administered once daily via gavage for 28 days
Type: ADME, organism-based
condition_label: in vivo, time 28 day
test_readout: Cmax (ng/mL)
Give bare numbers, in ng/mL.

Report Cmax for C=CC(=O)N1CCc2c(ncnc2N2CC[C@@H](Nc3ncc(Cl)c(OC)n3)C2)C1 please.
576

====

Please go through the items and note down their IC50.
experimental_target: CDK12/Cyclin K (Homo sapiens)
Sequence (O75909 whole entry): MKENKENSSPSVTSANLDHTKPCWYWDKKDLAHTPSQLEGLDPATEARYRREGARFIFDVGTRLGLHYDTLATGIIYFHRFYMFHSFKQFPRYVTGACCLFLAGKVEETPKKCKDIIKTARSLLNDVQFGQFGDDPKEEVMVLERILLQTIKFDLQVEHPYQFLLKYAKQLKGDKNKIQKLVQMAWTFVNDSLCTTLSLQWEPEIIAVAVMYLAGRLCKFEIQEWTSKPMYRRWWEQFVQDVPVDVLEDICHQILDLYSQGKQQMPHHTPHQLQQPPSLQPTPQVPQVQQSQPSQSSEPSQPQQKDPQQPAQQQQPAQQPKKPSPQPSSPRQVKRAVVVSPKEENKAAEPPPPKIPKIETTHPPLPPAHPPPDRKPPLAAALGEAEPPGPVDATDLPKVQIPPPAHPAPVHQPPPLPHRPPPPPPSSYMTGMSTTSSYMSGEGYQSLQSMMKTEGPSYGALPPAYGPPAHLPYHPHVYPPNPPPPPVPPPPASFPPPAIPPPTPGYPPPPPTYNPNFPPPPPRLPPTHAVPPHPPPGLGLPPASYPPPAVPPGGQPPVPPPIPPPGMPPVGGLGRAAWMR
Sequence (Q9NYV4 whole entry): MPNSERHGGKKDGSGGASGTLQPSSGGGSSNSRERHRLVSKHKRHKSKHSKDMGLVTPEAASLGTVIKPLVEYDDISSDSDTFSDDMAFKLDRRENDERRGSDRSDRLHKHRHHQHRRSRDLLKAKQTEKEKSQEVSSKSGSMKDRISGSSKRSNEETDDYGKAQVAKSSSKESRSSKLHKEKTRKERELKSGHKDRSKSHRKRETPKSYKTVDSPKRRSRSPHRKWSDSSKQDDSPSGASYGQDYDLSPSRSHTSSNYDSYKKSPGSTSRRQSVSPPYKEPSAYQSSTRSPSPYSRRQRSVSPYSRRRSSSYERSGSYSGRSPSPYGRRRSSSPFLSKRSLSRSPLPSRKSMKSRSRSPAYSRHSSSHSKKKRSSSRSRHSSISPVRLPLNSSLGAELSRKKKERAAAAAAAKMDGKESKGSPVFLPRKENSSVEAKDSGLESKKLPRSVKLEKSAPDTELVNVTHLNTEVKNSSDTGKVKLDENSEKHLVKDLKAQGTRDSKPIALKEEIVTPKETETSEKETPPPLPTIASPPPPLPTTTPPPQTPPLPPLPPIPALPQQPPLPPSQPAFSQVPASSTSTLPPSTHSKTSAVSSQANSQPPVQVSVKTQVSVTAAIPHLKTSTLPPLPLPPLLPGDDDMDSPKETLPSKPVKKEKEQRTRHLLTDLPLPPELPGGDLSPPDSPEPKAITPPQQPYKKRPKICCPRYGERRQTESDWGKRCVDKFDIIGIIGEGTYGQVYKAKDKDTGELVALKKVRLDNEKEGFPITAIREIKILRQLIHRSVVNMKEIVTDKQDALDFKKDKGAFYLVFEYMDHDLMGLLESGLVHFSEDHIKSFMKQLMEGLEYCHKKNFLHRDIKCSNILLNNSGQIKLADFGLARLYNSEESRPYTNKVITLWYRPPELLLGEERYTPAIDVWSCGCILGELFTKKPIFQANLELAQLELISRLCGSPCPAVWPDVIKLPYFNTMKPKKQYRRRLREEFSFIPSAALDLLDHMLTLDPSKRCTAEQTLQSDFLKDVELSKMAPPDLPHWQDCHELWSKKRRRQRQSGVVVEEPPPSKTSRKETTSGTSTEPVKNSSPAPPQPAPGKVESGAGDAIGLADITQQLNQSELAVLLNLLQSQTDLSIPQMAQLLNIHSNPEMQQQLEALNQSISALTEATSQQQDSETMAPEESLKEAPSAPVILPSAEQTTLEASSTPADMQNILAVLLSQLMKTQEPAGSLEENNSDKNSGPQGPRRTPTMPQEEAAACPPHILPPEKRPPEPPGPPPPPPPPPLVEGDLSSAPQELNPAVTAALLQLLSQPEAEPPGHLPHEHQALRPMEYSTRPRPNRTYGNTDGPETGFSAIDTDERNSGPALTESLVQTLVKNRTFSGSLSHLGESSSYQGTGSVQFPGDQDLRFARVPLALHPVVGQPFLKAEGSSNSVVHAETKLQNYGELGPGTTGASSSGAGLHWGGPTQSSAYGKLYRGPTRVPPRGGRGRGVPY
experiment_summary: Inhibition of CDK12/Cyclin K (unknown origin) using pS7-CTD peptide and ATP as substrate incubated for 120 mins by ADP-Glo reagent based luminescence analysis

Report IC50 for C=CC(=O)Nc1ccc(C(=O)N2CC[C@@H](Nc3ncc(Cl)c(OC)n3)C2)cc1 please.
0.0069 µM

Try this molecule too: C=CC(=O)[C@H]1CC[C@H](C(=O)N2CC[C@@H](Nc3ncc(Cl)c(OC)n3)C2)CC1
3.74 µM

Try this molecule too: C=CC(=O)N1CC2(CCC(C(=O)N3CC[C@@H](Nc4ncc(Cl)c(OC)n4)C3)CC2)C1
0.669 µM

Try this molecule too: C=CC(=O)NC12CC(C(=O)N3CC[C@@H](Nc4ncc(Cl)c(OC)n4)C3)(C1)C2
2.41 µM

We next turn to a different molecule, shown below.
Report IC50 for C=CC(=O)N1CCC(C(=O)N2CC[C@@H](Nc3ncc(Cl)c(OC)n3)C2)CC1 please.
2.27 µM
